Assign Synergy to each entry below.
Test system: Candida albicans
Assay: Antifungal growth assay, defensin plus chemical fungicide
Assay type: cell-based
Set-up: key: Io-Ee in % inhibition points; <15 none, 15-30 low, 30-60 medium, >60 high
Conditions: defensin 2.5 μM + Caspofungin (4 ng/ml); Io-Ee
One number for each entry.

Record request: Synergy value, item HXL012: Class I permeabilizing plant defensin, mature protein SEQ ID NO:25 (RMCKAPSKLFRGMCGIRDSNCDSVCRAEGMAAGDCHGLRRRCICSRPC; HXL012 Amaranthus retroflexus) 51.2

Record request: Synergy value, item HXL002: Class I permeabilizing plant defensin, mature protein SEQ ID NO:27 (RDCLSQSHKFKGACLSSSNCAAVCRTENFPDGECHTHNFARKCFCKRAC; HXL002 Triticum aestivum) 34.7

Record request: Synergy value, item HXL001: Class I permeabilizing plant defensin, mature protein SEQ ID NO:26 (RHCLSQSHRFKGLCMSSNNCANVCQTENFPGGECKAEGATRKCFCKKIC; HXL001 Zea mays) 61.7

Others:
Record request: Synergy value, item HXL009: Class I permeabilizing plant defensin, mature protein SEQ ID NO:33 (TVCMRHNNFYHGPCMSNKDCANSCVQHNLGVGGYCRGKIPFNKECMCTFEC; HXL009) 61.5

---

Tested on: Candida albicans
Test: Antifungal growth assay, defensin plus proteinase inhibitor
Format: cell-based
Details: defensin 2 μM + SlCys9N (2.5 μM); Ee, Limpel formula
Observed Property: Expected inhibition (%)
Give bare numbers, in %.

Lookup: Expected inhibition / Candida albicans / HXP4: artificial (synthetic) defensin variant, SEQ ID NO:8; permeabilizing (RECKTESHRFKGPCITKPPCRKACISEKFTDGHCSKILRRCLCTKPC; HXP4 protein) 33

I'm hoping you can list Expected inhibition for every substance here, please.
1. NaD1: Solanaceous Class II plant defensin from flowers of Nicotiana alata (Q8GTMO); permeabilizing defensin (RECKTESNTFPGICITKPPCRKACISEKFTDGHCSKILRRCLCTKPC; UniProt Q8GTM0 26-72, looked up)
2. HXL004: Class I permeabilizing plant defensin, mature protein SEQ ID NO:28 (RTCESQSHRFKGLCFSRSNCASVCHTEGFNGGHCRGFRRRCFCTRHC; HXL004 Nicotiana benthamiana)
3. HXL008: Class I permeabilizing plant defensin, mature protein SEQ ID NO:30 (KVCTKPSKFFKGLCGTDGACTTACRKEGLHSGYCQLKGFLNSVCVCRKHC; HXL008 Picramnia pentandra)

1: 31.9; 2: 55.2; 3: 30.2

---

Test system: Candida albicans
Experiment: Antifungal growth assay, defensin plus chemical fungicide
Format: cell-based
Conditions: defensin 2.5 μM + Caspofungin (4 ng/ml); Ee, Limpel formula
Observed Property: Expected inhibition (%)
One number for each entry, in %.

The examples below pair each entry with its known result.
Record request: Expected inhibition value, item HXL009: Class I permeabilizing plant defensin, mature protein SEQ ID NO:33 (TVCMRHNNFYHGPCMSNKDCANSCVQHNLGVGGYCRGKIPFNKECMCTFEC; HXL009) 3.7

Record request: Expected inhibition value, item HXL012: Class I permeabilizing plant defensin, mature protein SEQ ID NO:25 (RMCKAPSKLFRGMCGIRDSNCDSVCRAEGMAAGDCHGLRRRCICSRPC; HXL012 Amaranthus retroflexus) 0

Record request: Expected inhibition value, item HXL001: Class I permeabilizing plant defensin, mature protein SEQ ID NO:26 (RHCLSQSHRFKGLCMSSNNCANVCQTENFPGGECKAEGATRKCFCKKIC; HXL001 Zea mays) 11.7

Okay, next one:
Record request: Expected inhibition value, item HXL002: Class I permeabilizing plant defensin, mature protein SEQ ID NO:27 (RDCLSQSHKFKGACLSSSNCAAVCRTENFPDGECHTHNFARKCFCKRAC; HXL002 Triticum aestivum) 6.1
